The measured values listed here are drawn from patent US5225528A.

# IC50 annotations
target: AVP-V1 sites (Rattus norvegicus, UniProt P30560); construct: crude membrane preparation of male rat liver (AVP-V1 sites); from tissue; host or cells: male rat liver, crude membranes; assay: [^3 H]AVP binding to crude membrane preparation of male rat liver (AVP-V1 sites); settings: read-out: Receptor Binding Results IC50 (nM) [^3 H]-AVP-V1
Sequence (P30560 whole entry): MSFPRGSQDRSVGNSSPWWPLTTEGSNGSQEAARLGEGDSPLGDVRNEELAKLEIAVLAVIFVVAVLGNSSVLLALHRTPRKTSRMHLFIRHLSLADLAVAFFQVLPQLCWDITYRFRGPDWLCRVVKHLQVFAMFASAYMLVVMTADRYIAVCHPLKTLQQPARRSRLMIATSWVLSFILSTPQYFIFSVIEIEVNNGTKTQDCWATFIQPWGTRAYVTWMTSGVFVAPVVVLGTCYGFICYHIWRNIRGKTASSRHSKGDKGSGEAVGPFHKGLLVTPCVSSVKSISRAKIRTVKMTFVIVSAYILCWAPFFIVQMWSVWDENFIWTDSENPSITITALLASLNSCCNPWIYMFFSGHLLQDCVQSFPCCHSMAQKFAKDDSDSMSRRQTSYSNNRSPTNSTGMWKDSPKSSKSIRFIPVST
Numbered stars: 1 amine (or outer) side, 2 acyl side, 3 side chain; on linkers, the order of the positions; unused ones are H or OH. Square brackets hold non-standard residues; d marks the D form. Peptide text beside a SMILES is read from it. * marks the point of attachment. dPiz(1,6-dehydro) = O=C(O)[C@H]1CCC=NN1; X6 = O=C([C@H]1CCCNN1[*:1])[*:2]; dNMeF = CN[C@H](Cc1ccccc1)C(=O)O; Pip = O=C(O)[C@@H]1CCCCN1; Orn = NCCC[C@H](N)C(=O)O; Boc = CC(C)(C)OC(=O)*
Express it in nM; write the number only.

Some solved entries appear below for comparison.
Compound	Test System	Scale Unit	IC50
CC[C@H](C)[C@@H]1NC(=O)[C@@H](Cc2ccccc2)NC(=O)[C@@H]2CCCN2C(=O)[C@@H](Cc2ccccc2)N(C)C(=O)[C@H](CCCCNC(=O)OC(C)(C)C)NC(=O)[C@H]2CCC=NN2C1=O [Example 173] (cyclo(I[dPiz(1,6-dehydro)]K(Boc)[dNMeF]P[dF]))	AVP-V1 sites (Rattus norvegicus, UniProt P30560)	nM	1500
CC[C@H](C)[C@@H]1NC(=O)[C@@H](Cc2ccccc2)NC(=O)[C@@H]2CCCN2C(=O)[C@@H](Cc2ccccc2)N(C)C(=O)[C@H](CCCNC(=O)OC(C)(C)C)NC(=O)[C@H]2CCC=NN2C1=O [Example 124] (cyclo(I[dPiz(1,6-dehydro)][Orn](Boc)[dNMeF]P[dF]))	AVP-V1 sites (Rattus norvegicus, UniProt P30560)	nM	2700
CC[C@H](C)[C@@H]1NC(=O)[C@@H](Cc2c[nH]c3ccccc23)NC(=O)[C@@H]2CCCN2C(=O)[C@@H](Cc2ccccc2)N(C)C(=O)[C@H](CCCN)NC(=O)[C@H]2CCC=NN2C1=O [Example 127] (cyclo(I[dPiz(1,6-dehydro)][Orn][dNMeF]P[dW]))	AVP-V1 sites (Rattus norvegicus, UniProt P30560)	nM	1600

Next up:
**Query** Which IC50 reading was recorded for the compound CC[C@H](C)[C@@H]1NC(=O)[C@@H](Cc2ccccc2)NC(=O)[C@@H]2CCCN2C(=O)[C@@H](Cc2c[nH]cn2)NC(=O)[C@@H]2CCCCN2C(=O)[C@H]2CCCNN2C1=O [Example 14] (cyclo(I[X6][Pip][dH]P[dF])) ?
**Result** 10000

* * *

Target: AVP-V2 sites (Rattus norvegicus, UniProt Q00788)
Construct: male rat liver (AVP-V1 sites) or kidney medulla (AVP-V2 sites); from tissue; host or cells: male rat kidney medulla, crude membranes
Sequence (Q00788 whole entry): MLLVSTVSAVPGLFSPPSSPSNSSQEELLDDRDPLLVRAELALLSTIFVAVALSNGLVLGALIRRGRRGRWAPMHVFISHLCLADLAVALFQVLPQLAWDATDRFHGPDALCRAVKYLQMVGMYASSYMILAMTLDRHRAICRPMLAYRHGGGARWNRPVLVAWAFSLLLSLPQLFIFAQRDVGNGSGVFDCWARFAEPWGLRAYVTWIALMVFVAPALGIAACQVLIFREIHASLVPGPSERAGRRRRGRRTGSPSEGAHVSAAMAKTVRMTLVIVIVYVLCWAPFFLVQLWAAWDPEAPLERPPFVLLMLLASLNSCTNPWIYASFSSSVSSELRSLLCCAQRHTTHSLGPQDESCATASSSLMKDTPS
Assay: [^3 H]AVP binding to crude membrane preparation of male rat kidney medulla (AVP-V2 sites)
Conditions: read-out: Receptor Binding Results IC50 (nM) [^3 H]-AVP-V2
Method: Nonspecific binding (5-10% of the total binding) was determined using 10 μM unlabeled AVP, and the binding reaction was terminated by filtration as described above for the [^3 H]OT binding assay.
Numbered stars: 1 amine (or outer) side, 2 acyl side, 3 side chain; on linkers, the order of the positions; unused ones are H or OH. Square brackets hold non-standard residues; d marks the D form. Peptide text beside a SMILES is read from it. * marks the point of attachment. X2 = O=C(OCc1ccccc1)N1CCN([*:1])[C@H](C(=O)[*:2])C1; dPiz(1,6-dehydro) = O=C(O)[C@H]1CCC=NN1; d(hPhe) = N[C@H](CCc1ccccc1)C(=O)O; dNMeF = CN[C@H](Cc1ccccc1)C(=O)O; Pip = O=C(O)[C@@H]1CCCCN1; dPip = O=C(O)[C@H]1CCCCN1; Boc = CC(C)(C)OC(=O)*
# IC50 annotations
Express it in nM; write the number only.

Molecule	Test System	IC50 (nM)
CC[C@H](C)[C@@H]1NC(=O)[C@@H](CCc2ccccc2)NC(=O)[C@@H]2CCCN2C(=O)[C@@H](Cc2ccccc2)N(C)C(=O)[C@@H]2CCCCN2C(=O)[C@H]2CCCCN2C1=O [Example 165] (cyclo(I[dPip][Pip][dNMeF]P[d(hPhe)]))	AVP-V2 sites (Rattus norvegicus, UniProt Q00788)	2600
CC[C@H](C)[C@@H]1NC(=O)[C@@H](Cc2ccccc2)NC(=O)[C@@H]2CCCN2C(=O)[C@@H](Cc2ccccc2)N(C)C(=O)[C@H](CCCCNC(=O)OC(C)(C)C)NC(=O)[C@H]2CCC=NN2C1=O [Example 173] (cyclo(I[dPiz(1,6-dehydro)]K(Boc)[dNMeF]P[dF]))	AVP-V2 sites (Rattus norvegicus, UniProt Q00788)	2800
CC[C@H](C)[C@@H]1NC(=O)[C@@H](Cc2ccccc2)NC(=O)[C@@H]2CCCN2C(=O)[C@@H](Cc2ccccc2)NC(=O)[C@@H]2CN(C(=O)OCc3ccccc3)CCN2C(=O)[C@H]2CCCCN2C1=O [Example 77] (cyclo(I[dPip][X2][dF]P[dF]))	AVP-V2 sites (Rattus norvegicus, UniProt Q00788)	12300

Next up:
**Query** Which IC50 reading was recorded for the molecule CCOc1ccc(C[C@H]2NC(=O)[C@@H]3CCCN3C(=O)[C@@H](Cc3ccccc3)N(C)C(=O)[C@@H]3CCCCN3C(=O)[C@H]3CCCCN3C(=O)[C@H]([C@@H](C)CC)NC2=O)cc1 [Example 122] (cyclo(I[dPip][Pip][dNMeF]P[dY](Et))) ?
**Result** 695
